Tested on: SW-620 colon
Experiment: NCI-60 one-dose screen, 48 h
Conditions: 10 µM
About 83,000 compounds went through this panel and 20% of them were active in at least one assay; those are over-represented in the sample as a whole. The source made the active and inactive calls. Rule for the calls: active = growth percent below 10; inactive = the rest.
Answer with one of the outcomes class 1 = active, class 0 = inactive

molecule: COc1cc2c(Nc3ccc(-c4ccc(N)cc4)cc3)ncnc2c(OC)c1OC
cat: class 0

molecule: COc1ccc2c(c1)C(=O)/C(=C/c1cccc(OCC(=O)c3ccc([N+](=O)[O-])cc3)c1)CO2
cat: class 1

molecule: COc1cc(C2C(C#N)=C(N)Oc3cc(O)ccc32)cc(OC)c1OC (stereo not given)
cat: class 0

molecule: C[C@]12CC[C@@H]3c4ccc(O)cc4CC[C@H]3[C@@H]1CC[C@@H]2NS(=O)(=O)c1ccc(C(F)(F)F)cc1
cat: class 0

molecule: CC(=O)Nc1ccc(S(=O)(=O)c2ccnc3cc(Cl)ccc23)cc1
cat: class 0

So what was the verdict on O=[N+]([O-])c1cc(Cl)cc(Cl)c1O in this test?
class 0

Moving on to c1ccc(CCCCc2ccc3ccccc3n2)cc1
class 0

Moving on to CCCc1nc(C(C)(C)O)c(C(=O)O)n1Cc1ccc(-c2ccccc2-c2nn[nH]n2)cc1
class 0

Moving on to O=C1/C=C/[C@@H](O)[C@@H]2C[C@@H](O)C[C@H]2/C=C/CCC[C@@H](C(F)(F)F)O1
class 0

Moving on to Cc1ccccc1N1C(=O)c2cc(S(N)(=O)=O)c(Cl)cc2NC1C (stereo not given)
class 0

----------
Test system: MDA-MB-231 breast
Test: NCI-60 one-dose screen, 48 h (100 = growth as untreated, 0 = no growth, -100 = all killed)
Settings: 10 µM
The panel holds about 83,000 compounds, 20% with a hit somewhere; the sample as a whole holds those more often.
Would you mind telling me the reported growth of each entry?
Give bare numbers, in %.

Please review the entries below; each comes with its answer.
compound: O=C(CCCNC(=O)c1nc(-c2ccccc2)n(-c2ccccc2)n1)NO
assay.readout: growth
result: 103

compound: CC(C)Cc1ccc([C@H](C)C(=O)O)cc1
assay.readout: growth
result: 108

compound: c1ccc(CSc2ncccc2-c2nnc(SCCN3CCOCC3)o2)cc1
assay.readout: growth
result: 114

compound: COc1cc(NC(=O)C2=C(N3CCOCC3)/C(=C/c3ccc(Cl)cc3)CC2)cc(OC)c1OC
assay.readout: growth
result: 91.6

Value sought for every listed compound: growth.
1. Cc1ccc(/C=C2/C(=O)N(C)c3ccc(S(=O)(=O)Nc4ccc(C(C)(C)C)cc4)cc32)s1
2. O=S(=O)(O)c1ccc(Cl)cc1
3. OCC1OC2C(NC(=S)N2c2ccccc2)C(O)C1O (centres undefined)
4. CN(C)CCOc1ccccc1NC1=C(Cl)C(=O)C(Nc2ccccc2OCCN(C)C)=C(Cl)C1=O

35.2
107
99.8
53.1

Value sought for every listed compound: growth.
1. CCCCCCCCCCCCCCCCCC[n+]1ccc2c(C)c3c(c(C)c2c1)c1cc(O)ccc1n3CC
2. CCN1C(=O)CC(SC2CC(=O)N(CC)C2=O)C1=O (centres undefined)
3. CN(C)CCOc1cccc(-c2nc3sccn3c2-c2ccnc(S(C)(=O)=O)n2)c1
4. Cc1cc(=O)n2nnc3cc(C(F)(F)F)ccc3n12
5. CC(C)=CCC/C(C)=C/CC/C(C)=C/CC/C=C(\C)CC/C=C(\C)CCC(=O)Nc1ccn(C2OC(CO)C(O)C2(F)F)c(=O)n1 (centres undefined)
6. O=C(N/N=C/c1ccc(Cl)cc1)c1ccccc1Nc1cccc(C(F)(F)F)c1
7. COc1ccc(-c2nn(-c3cccc(Cl)c3)cc2-c2c(C#N)c(=O)n3[nH]c(-c4ccc(C)cc4)nc3c2C#N)cc1
8. CCn1c(CSc2nc3ccccc3c(=O)n2CCc2ccccc2)n[nH]c1=S

19
105
80.2
108
65.2
74.5
-2.7
82.8
